Value source: PubChem BioAssay

protocol: NPC library primary testing for decreased DLD-1 cell viability via CellTiter-Glo (AID 1117346)
measurement-setup: DLD-1 viability, CellTiter-Glo luminescence; at 20 µM (top of the series)
Active and inactive are the calls of the source.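 Rule for the calls: active = compounds that lower survival of DLD-1 colon cancer cells in the luminescence readout, no cutoff given; inactive = the rest.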
Classes used: 1 for active, 0 for inactive

{"compound": "CO[C@@]1(NC(=O)CSCC#N)C(=O)N2C(C(=O)O)=C(CSc3nnnn3C)CS[C@@H]21", "discrete-label": 0}
{"compound": "NC[C@H](O)c1ccc(O)c(O)c1", "discrete-label": 0}
{"compound": "CCCCCC(C)N (stereo unspecified)", "discrete-label": 0}
{"compound": "Nc1c2c(nc3ccccc13)CCCC2O (stereo unspecified)", "discrete-label": 0}
{"compound": "NS(=O)(=O)c1cc2c(cc1Cl)NC(C1CC3C=CC1C3)NS2(=O)=O (stereo unspecified)", "discrete-label": 0}
{"compound": "C[C@]12CC[C@@H]3c4ccc(O)cc4CC[C@H]3[C@@H]1CCC2=O", "discrete-label": 0}
{"compound": "CCCCOc1ccc(C(=O)CCN2CCCCC2)cc1", "discrete-label": 0}
{"compound": "Nc1nc2c(ncn2COC(CO)CO)c(=O)[nH]1", "discrete-label": 0}
{"compound": "O=C1[C@H]2CCCC[C@H]2C(=O)N1CCCCN1CCN(c2nsc3ccccc23)CC1", "discrete-label": 1}
{"compound": "CN(C)CC[C@@H](c1ccc(Cl)cc1)c1ccccn1", "discrete-label": 0}
{"compound": "Cc1c(O)cccc1C(=O)N[C@@H](CSc1ccccc1)[C@H](O)CN1C[C@H]2CCCC[C@H]2C[C@H]1C(=O)NC(C)(C)C", "discrete-label": 1}
